assay: Cell metabolism of phenolic compounds (UHPLC-HR-MS analysis of cell media); type: in vitro ADME, Human; details: human, SW480 cells; SW480, 72 h
We begin with a simple list: items and their reported recovery at 72 h.

1) O=C(O)Cc1cccc(O)c1 [3-(3′-Hydroxyphenyl)acetic acid, 3-(3′-hydroxyphenyl)acetic acid]: > 80%

Next up:
Measured recovery at 72 h, O=C(O)CCc1cccc(O)c1 [3-(3′-Hydroxyphenyl)propanoic acid, 3-(3′-hydroxyphenyl)propanoic acid] : > 80%
